Attribution: patent US20210355104A1

tested on: p-CREB (phosphorylated cAMP response-element binding protein) in human whole blood; experiment: p-CREB assay in human whole blood by flow cytometry (NECA stimulation, CD4 staining); assay type: cell-based; details: Homo sapiens, values separated by / are repeat determinations
# IC50 per entry

# compound, IC50 [nM]
rows = [
    ("Cc1cc(-c2c(OCc3ccccn3)nc(N)nc2-c2ccc(F)cc2)cc(C(F)F)n1", 14),
    ("Cc1cc(-c2c(OCCNS(N)(=O)=O)nc(N)nc2-c2ccc(F)cc2)cc(C(F)(F)F)n1", 1780),
    ("Cc1cc(-c2c(OCCN(C)c3ccccn3)nc(N)nc2-c2ccc(F)cc2)cc(C(F)F)n1", 11.2),
    ("CNS(=O)(=O)NCCOc1nc(N)nc(-c2ccccc2)c1-c1cc(C)nc(C(F)(F)F)c1", 478),
    ("Cc1cc(-c2c(OCc3nccn3C(C)C)nc(N)nc2-c2ccc(F)cc2)cc(C(F)F)n1", 47),
    ("Cc1cc(-c2c(OCCn3ccccc3=O)nc(N)nc2-c2ccc(F)cc2)cc(C(F)F)n1", 63),
    ("COCC(O)COc1nc(N)nc(-c2ccc(F)cc2)c1-c1cc(C)nc(C(F)F)c1 (centres unmarked)", 469),
    ("CCN(CC)C(=O)COc1nc(N)nc(-c2ccccc2)c1-c1cc(C)nc(C(F)(F)F)c1", 47),
]

---

target: Adenosine A2A receptor (Homo sapiens, UniProt P29274); assay: cAMP assay in 293A cells stably expressing the adenosine A2A receptor (CGS21680 stimulation, HTRF); assay type: cell-based; design: expressed in transfected cells; host or cells: 293A cells (Invitrogen, Cat# R705-07) infected with A2A-expressing lentivirus (custom packaged by Biosettia), puromycin selected; conditions: 293A-A2AR cells, 0.1% BSA, 1 uM CGS; read-out: cAMP (nM) 0.1% BSA, 1 uM CGS
Sequence (P29274 whole entry): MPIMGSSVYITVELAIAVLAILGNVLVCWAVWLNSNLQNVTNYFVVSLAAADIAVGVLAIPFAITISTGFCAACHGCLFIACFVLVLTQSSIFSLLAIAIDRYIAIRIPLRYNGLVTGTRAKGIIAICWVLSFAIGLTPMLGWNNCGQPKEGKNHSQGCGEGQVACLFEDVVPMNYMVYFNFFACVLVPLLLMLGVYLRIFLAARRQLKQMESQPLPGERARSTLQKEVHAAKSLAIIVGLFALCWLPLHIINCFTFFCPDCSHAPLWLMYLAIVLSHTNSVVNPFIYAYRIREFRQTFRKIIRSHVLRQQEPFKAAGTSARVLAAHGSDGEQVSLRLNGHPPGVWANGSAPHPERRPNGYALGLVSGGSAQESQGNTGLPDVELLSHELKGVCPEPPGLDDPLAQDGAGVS
Reported IC50 values follow for various molecules

# molecule, assay_target, value_qualifier, IC50 / nM
measured = [
    ("Cc1cc(-c2c(OCc3cccc(N4CC(C(=O)O)C4)n3)nc(N)nc2-c2ccc(F)cc2)cc(C(F)F)n1 [Example 293]", "Adenosine A2A receptor (Homo sapiens, UniProt P29274)", "=", 4350),
    ("CCc1nn(C[C@H](O)CO)nc1COc1nc(N)nc(-c2ccc(F)cc2)c1-c1cc(C)nc(C(F)F)c1 [Example 316]", "Adenosine A2A receptor (Homo sapiens, UniProt P29274)", "=", 1080),
    ("Cc1cc(-c2c(OCc3cccc(N4CCCC4)n3)nc(N)nc2-c2ccc(F)cc2)cc(C(F)F)n1 [Example 283]", "Adenosine A2A receptor (Homo sapiens, UniProt P29274)", "=", 1170),
    ("Cc1cc(-c2c(OCc3nc4ccccc4o3)nc(N)nc2-c2ccc(F)cc2)cc(C(F)F)n1 [Example 342]", "Adenosine A2A receptor (Homo sapiens, UniProt P29274)", "=", 419),
    ("CCc1nnn(CC(C)(C)C(=O)O)c1COc1nc(N)nc(-c2ccc(F)cc2)c1-c1cc(C)nc(C(F)F)c1 [Example 301]", "Adenosine A2A receptor (Homo sapiens, UniProt P29274)", ">", 10000),
    ("Cc1cc(-c2c(OCCn3ccc(C(=O)O)cc3=O)nc(N)nc2-c2ccc(F)cc2)cc(C(F)F)n1 [Example 334]", "Adenosine A2A receptor (Homo sapiens, UniProt P29274)", "=", 3170),
    ("Cc1cc(-c2c(OCc3ccncn3)nc(N)nc2-c2cccc(C#N)c2C)cc(C(F)F)n1 [Example 240]", "Adenosine A2A receptor (Homo sapiens, UniProt P29274)", "=", 17000),
    ("Cc1cc(-c2c(OCc3cccc(C(C)(C)C(=O)O)c3)nc(N)nc2-c2ccc(F)cc2)cc(C(F)F)n1 [Example 363]", "Adenosine A2A receptor (Homo sapiens, UniProt P29274)", "=", 4800),
    ("Cc1cc(-c2c(OCc3cccc(N(C)CC(=O)O)n3)nc(N)nc2-c2ccc(F)cc2)cc(C(F)F)n1 [Example 327]", "Adenosine A2A receptor (Homo sapiens, UniProt P29274)", "=", 4390),
    ("CCn1c(COc2nc(N)nc(-c3ccc(F)cc3)c2-c2cc(C)nc(C(F)F)c2)nc2ccc(C(=O)O)cc21 [Example 332]", "Adenosine A2A receptor (Homo sapiens, UniProt P29274)", ">", 5000),
    ("Cc1cc(-c2c(OCc3cccc(C(C)(C)N)n3)nc(N)nc2-c2ccc(F)cc2)cc(C(F)F)n1 [Example 383]", "Adenosine A2A receptor (Homo sapiens, UniProt P29274)", "=", 1010),
    ("Cc1cc(-c2c(OCc3ccnc(C(C)(C)C#N)c3)nc(N)nc2-c2ccc(F)cc2)cc(C(F)F)n1 [Example 277]", "Adenosine A2A receptor (Homo sapiens, UniProt P29274)", "=", 455),
    ("CCc1nnn(CC(O)COC)c1COc1nc(N)nc(-c2ccc(F)cc2)c1-c1cc(C)nc(C(F)F)c1 (stereo not drawn) [Example 322]", "Adenosine A2A receptor (Homo sapiens, UniProt P29274)", "=", 2470),
    ("CCc1nnn(C[C@H](O)CO)c1COc1nc(N)nc(-c2ccc(F)cc2)c1-c1cc(C)nc(C(F)F)c1 [Example 318]", "Adenosine A2A receptor (Homo sapiens, UniProt P29274)", "=", 1350),
    ("Cc1cc(-c2c(OCc3ncc(C(C)(O)C(=O)O)n3C)nc(N)nc2-c2ccc(F)cc2)cc(C(F)F)n1 (stereo not drawn) [Example 395]", "Adenosine A2A receptor (Homo sapiens, UniProt P29274)", ">", 50000),
]

---

target: UniProt P29274; assay: cAMP assay in 293A cells stably expressing the adenosine A2A receptor (CGS21680 stimulation, HTRF); format: cell-based; parameters: expressed in transfected cells; host or cells: 293A cells (Invitrogen, Cat# R705-07) infected with A2A-expressing lentivirus (custom packaged by Biosettia), puromycin selected; settings: 293A-A2AR cells, 0.1% BSA, 1 uM CGS; read-out: cAMP (nM) 0.1% BSA, 1 uM CGS
The threshold is 5000 nM. Values of IC50 beneath it are tagged YES; values meeting or exceeding it are tagged NO.

# molecule, group_label
measured = [
    ("CCn1c(COc2nc(N)nc(-c3ccc(F)cc3)c2-c2cc(C)nc(C(F)F)c2)nc2cc(C(=O)O)ccc21 [Example 333]", "NO"),
    ("Cc1cc(-c2c(OCc3nccn3CCCC(=O)O)nc(N)nc2-c2ccc(F)cc2)cc(C(F)F)n1 [Example 386]", "YES"),
    ("Cc1cc(-c2c(OCC(CO)N(C)c3ccccn3)nc(N)nc2-c2ccc(F)cc2)cc(C(F)F)n1 (stereo not drawn) [Example 199]", "YES"),
    ("Cc1cc(-c2c(-c3ccc(F)cc3)nc(N)nc2-c2cn(Cc3cccc(C(C)(C)O)n3)nn2)cc(C(F)F)n1 [Example 298]", "NO"),
    ("CCc1c(COc2nc(N)nc(-c3ccc(F)cc3)c2-c2cc(C)nc(C(F)F)c2)nnn1CC(C)(C)O [Example 252]", "YES"),
    ("Cc1cc(-c2c(OCc3cccnn3)nc(N)nc2-c2ccc(F)cc2)cc(C(F)F)n1 [Example 223]", "YES"),
    ("Cc1cc(-c2c(OCc3ccn(CC(C)(C)O)n3)nc(N)nc2-c2ccc(F)cc2)cc(C(F)F)n1 [Example 258]", "YES"),
    ("Cc1cc(-c2c(OCc3nccn3CS(C)(=O)=O)nc(N)nc2-c2ccc(F)cc2)cc(C(F)F)n1 [Example 215]", "YES"),
    ("Cc1cc(-c2c(OCc3ccn(C)c(=O)c3)nc(N)nc2-c2ccc(F)cc2)cc(C(F)F)n1 [Example 280]", "NO"),
    ("Cc1cc(-c2c(OCc3ccn(C(C)(C)C(=O)O)n3)nc(N)nc2-c2ccc(F)cc2)cc(C(F)F)n1 [Example 388]", "NO"),
    ("Cc1cc(-c2c(OCc3ccnn3CC3CC3)nc(N)nc2-c2ccc(F)cc2)cc(C(F)F)n1 [Example 229]", "YES"),
    ("CCc1nnn(CC)c1COc1nc(N)nc(-c2cccc(C#N)c2C)c1-c1cc(C)nc(C(F)F)c1 [Example 255]", "NO"),
    ("CCc1c(COc2nc(N)nc(-c3ccc(F)cc3)c2-c2cc(C)nc(C(F)F)c2)nnn1CC(=O)O [Example 232]", "YES"),
    ("Cc1cc(-c2c(OCc3cccc(C(C)(C)C(=O)O)c3F)nc(N)nc2-c2ccc(F)cc2)cc(C(F)F)n1 [Example 370]", "NO"),
    ("Cc1cc(-c2c(OCc3nc4nc(C(C)(C)C(=O)O)ccc4n3C)nc(N)nc2-c2ccc(F)cc2)cc(C(F)F)n1 [Example 374]", "NO"),
]
